TGI for assorted molecules
tested on: A498 renal; test: NCI tumour cell line growth inhibition, 48 h
assay.readout: TGI

                                    molecule  assay_readout     result
 0  COC(=O)C1Cc2c(C)cccc2C1=O (centres undefined)            TGI   > 100 µM
 1  CN(C)c1c(Cl)c(=O)oc2c1ccc1nc(-c3ccccc3)sc12            TGI   > 100 µM
 2  CCCCCCCCCCCCCCCC[N+](C)(C)Cc1ccc(C[N+](C)(C)CCCCCCCCCCCCCCCC)cc1            TGI   > 100 µM
 3          c1cnc2c(c1)-n1cccc1C1(CCOCC1)NN2            TGI   > 100 µM
 4                      N/C(CC/C(N)=N\O)=N\O            TGI   > 100 µM
 5  CC(C)C1CN1CC(O)Cn1ccnc1[N+](=O)[O-] (centres undefined)            TGI   > 100 µM
 6  COc1ccc2c(c1)O/C(=C\c1cccc(OCC(=O)Nc3nc4ccccc4s3)c1)C2=O            TGI  > 93.3 µM
 7                 Oc1c(Cl)c2nccnc2c2ccccc12            TGI   > 100 µM
 8  COc1ccc(C(=O)C2CC3(CCC2(O)c2ccc(OC)cc2)CC(=O)Nc2ccccc2C3=O)cc1 (centres undefined)            TGI   > 100 µM
 9  O=[N+]([O-])c1ccccc1S(=O)c1ccccc1 (centres undefined)            TGI   > 100 µM
10       O=C(c1ccccc1)c1ccc(-c2ccc(O)cc2)cc1            TGI  > 58.9 µM
11      N#C/C(=C\c1ccc(CP(=O)(O)O)cc1)C(N)=O            TGI   > 100 µM
12  Cc1c(Cl)ccc2c1NC(=O)C2(O)CC(=O)c1ccc(Cl)cc1Cl (centres undefined)            TGI    > 50 µM
13       O=S(=O)(O)c1cc(Cl)c(O)c2ncc(Cl)cc12            TGI   > 100 µM

* * *

TGI for assorted compounds
test system: NCI-H460 lung; experiment: NCI tumour cell line growth inhibition, 48 h
assay.readout: TGI

In [3]: df
Out[3]:
                                   compound  assay_readout    result
0          c1cnc2c(c1)-n1cccc1C1(CCOCC1)NN2            TGI  > 100 µM
1         CSc1n[nH]c(N)c1C(=O)Nc1ccc(Cl)cc1            TGI  > 100 µM
2  CC1OCC2OC(C)OC(C3C4=C(CC(C)(C)CC4=O)OC4=C3C(=O)CC(C)(C)C4)C2O1 (stereo not drawn)            TGI  > 100 µM

* * *

test system: NCI-H226 lung; assay: NCI tumour cell line growth inhibition, 48 h; in the data active = GI50 below about 0.43 µM; inactive = the rest
Possible outcomes: t = active, f = inactive

>>> print(df.to_string())
                                   compound  qualitative_label
0        O=C(Cn1ccnc1[N+](=O)[O-])N(CCO)CCO                  f
1               O=C1C=C(SCCO)C(=O)c2ccccc21                  f
2  Cc1nc2sc(C(=O)Nc3cccc4ccccc34)c(N)c2cc1C(C)O (centres undefined)                  t
3  FC(F)(F)c1cc(Nc2ccc3c(OCCCN4CCOCC4)cccc3n2)ccc1Cl                  f

* * *

system: HL-60(TB) leukemia; test: NCI tumour cell line growth inhibition, 48 h
assay.readout: TGI

>>> df
                              sample_smiles    result
0  COc1ccc2c(c1O)-c1c(OC)c(OC)cc3c1[C@H](C2)[N+](C)(C)CC3  > 100 µM
1  CN(C)c1c(Cl)c(=O)oc2c1ccc1nc(-c3ccccc3)sc12  > 100 µM
2          C[N+]1(C)C2Cc3ccccc3C1Cc1ccccc12  > 100 µM

* * *

system: PC-3 prostate; experiment: NCI tumour cell line growth inhibition, 48 h
assay.readout: TGI

                                   compound  target_of_assay     result
0     Nc1c(Br)cc(-c2cc(Br)c(N)c(Br)c2)cc1Br    PC-3 prostate   > 100 µM
1         CSc1n[nH]c(N)c1C(=O)Nc1ccc(Cl)cc1    PC-3 prostate   > 100 µM
2  Cc1ccc(NS(=O)(=O)c2ccc(-c3cnc(C4CC4)o3)cc2)cc1    PC-3 prostate    16.3 µM
3  CS(=O)(=O)c1nccc(-c2c(-c3cccc(OCc4ccc(F)cc4)c3)nc3sccn23)n1    PC-3 prostate    > 28 µM
4  Cc1cc(Br)c(N2C3=C(CC4=C2CCCC4=O)C(=O)CCC3)c(Br)c1    PC-3 prostate   > 100 µM
5  Cc1c(Cl)cccc1NC(=O)CC1Sc2ccccc2NC1=O (configuration not stated)    PC-3 prostate  > 86.5 µM
6  C1=C2SSC3=CC=C(SSc4ccc(s4)SSC4=CC=C(SSC(=C1)S2)S4)S3    PC-3 prostate   > 100 µM

* * *

TGI for assorted compounds
tested on: UO-31 renal; experiment: NCI tumour cell line growth inhibition, 48 h
assay.readout: TGI (µM)

compound	comparison.symbol	numeric.result
O=C(CCN1CCCCC1CCO)Nc1ccc2c(c1)C(=O)c1ccc(NC(=O)CCN3CCCCC3CCO)cc1C2=O (stereo unspecified)	>	100
O=C(NNc1nc2cc(F)ccc2n2c(CN3CCOCC3)ccc12)c1ccccc1	=	1.3
CCN(CC)c1ccc(NC(C(=O)c2ccccc2)c2ccccc2)cc1 (stereo unspecified)	=	4.18
O=C1c2ccn(CCCCN3CCOCC3)c2C(=O)c2c1c(O)c1ccccc1c2O	>	100
CN(C(=O)C1CCCCC1)c1ccccc1I(=O)=O	>	100
C[C@@H]1O[C@@H](O[C@H]2C[C@@H](O)[C@]3(CO)C4C(CC[C@]3(O)C2)[C@@]2(O)CC[C@H](C3=CC(=O)OC3)[C@@]2(C)C[C@H]4O)[C@H](O)[C@H](O)[C@H]1O (stereo partly specified)	=	0.0618
